- test-description: in vitro
- Type: in vitro ADME, rat
- condition-parameters: male, Sprague Dawley, rat
- Protocol: Sandwich-cultured rat hepatocytes (SCHs) were established according to previously described methods with minor modifications. Primary rat hepatocytes were isolated from male Sprague Dawley® (SD) rats (220-270 g) using a collagenase perfusion as described previously and plated at a density of 7.4×10^5 cells/2 ml/well onto six-well BioCoat plates. […]
test-readout: inhibition at 20 min

Requested field: inhibition at 20 min. Item: COc1ccc(-c2cc(=O)c3c(OC)c(OC)c(OC)c(OC)c3o2)cc1 [tangeretin]
~90%

* * *

- target-or-test-system: MDR1 (P-gp) (Homo sapiens, UniProt P08183)
- Sequence (P08183 whole entry): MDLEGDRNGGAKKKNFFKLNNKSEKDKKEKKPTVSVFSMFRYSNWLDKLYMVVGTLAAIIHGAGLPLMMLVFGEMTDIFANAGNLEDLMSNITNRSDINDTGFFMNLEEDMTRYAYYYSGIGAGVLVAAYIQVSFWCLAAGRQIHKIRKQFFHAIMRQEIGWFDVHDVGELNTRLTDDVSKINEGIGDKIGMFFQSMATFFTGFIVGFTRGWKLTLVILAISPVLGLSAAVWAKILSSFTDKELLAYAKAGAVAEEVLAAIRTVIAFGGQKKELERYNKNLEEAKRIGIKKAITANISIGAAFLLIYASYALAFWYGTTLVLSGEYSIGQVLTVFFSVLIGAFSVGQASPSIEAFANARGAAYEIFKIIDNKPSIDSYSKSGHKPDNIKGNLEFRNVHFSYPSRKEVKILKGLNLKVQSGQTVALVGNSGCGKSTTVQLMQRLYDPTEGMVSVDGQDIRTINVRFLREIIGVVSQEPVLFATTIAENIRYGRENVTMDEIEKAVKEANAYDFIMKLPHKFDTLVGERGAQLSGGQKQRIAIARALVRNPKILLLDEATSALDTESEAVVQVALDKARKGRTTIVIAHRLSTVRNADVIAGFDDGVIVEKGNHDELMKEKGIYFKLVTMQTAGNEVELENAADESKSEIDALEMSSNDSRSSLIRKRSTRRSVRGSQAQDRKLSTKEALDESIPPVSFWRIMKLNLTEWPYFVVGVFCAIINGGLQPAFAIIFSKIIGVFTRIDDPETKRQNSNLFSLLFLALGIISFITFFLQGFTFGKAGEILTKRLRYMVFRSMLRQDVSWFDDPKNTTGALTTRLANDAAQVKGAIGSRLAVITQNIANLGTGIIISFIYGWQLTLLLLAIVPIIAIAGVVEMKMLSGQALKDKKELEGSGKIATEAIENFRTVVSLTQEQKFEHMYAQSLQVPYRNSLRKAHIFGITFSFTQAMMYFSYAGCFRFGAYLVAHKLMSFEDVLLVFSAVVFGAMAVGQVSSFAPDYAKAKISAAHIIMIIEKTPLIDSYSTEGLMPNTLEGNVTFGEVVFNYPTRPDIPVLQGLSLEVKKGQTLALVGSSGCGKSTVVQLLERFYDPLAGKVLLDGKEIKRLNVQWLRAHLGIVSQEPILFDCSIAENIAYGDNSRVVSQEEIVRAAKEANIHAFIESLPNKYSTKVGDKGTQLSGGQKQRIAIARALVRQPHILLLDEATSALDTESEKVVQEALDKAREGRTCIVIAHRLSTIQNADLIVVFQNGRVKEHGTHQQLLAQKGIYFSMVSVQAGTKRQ
test-readout: IC50 (µM)
Numbers only, in µM.

Requested field: IC50. Item: `O=c1cc(-c2ccccc2)oc2cc(O)c(O)c(O)c12`
20.6

* * *

- test-description: Bidirectional transport across Caco-2 cell monolayers
- condition-parameters: human, Caco-2
test-readout: Papp at 180 min (×10⁻⁶ cm/s)
Answers are plain numbers, in ×10⁻⁶ cm/s.

Requested field: Papp at 180 min. Item: `O=c1c(-c2ccc(O)cc2)coc2cc(O)cc(O)c12`
13
